Below are IC50 values recorded for Neprilysin (Oryctolagus cuniculus) (UniProt P08049).
Please state the value followed by its unit.

Sample records with IC50:
O=C(O)CC(=O)NC(CS)Cc1ccccc1 (single isomer, unassigned; 7b) : 210 nM
O=C(O)CC(=O)NC(CS)Cc1ccccc1 (single isomer, unassigned; 7a) : 2.3 nM

Could you now consider this next compound?
### Prompt Provide measured IC50 on Neprilysin (Oryctolagus cuniculus) (UniProt P08049) for `CC(C)C[C@H](C(=O)O)C(=O)N[C@H](CS)Cc1ccccc1` please.
Sequence (P08049 whole entry, looked up): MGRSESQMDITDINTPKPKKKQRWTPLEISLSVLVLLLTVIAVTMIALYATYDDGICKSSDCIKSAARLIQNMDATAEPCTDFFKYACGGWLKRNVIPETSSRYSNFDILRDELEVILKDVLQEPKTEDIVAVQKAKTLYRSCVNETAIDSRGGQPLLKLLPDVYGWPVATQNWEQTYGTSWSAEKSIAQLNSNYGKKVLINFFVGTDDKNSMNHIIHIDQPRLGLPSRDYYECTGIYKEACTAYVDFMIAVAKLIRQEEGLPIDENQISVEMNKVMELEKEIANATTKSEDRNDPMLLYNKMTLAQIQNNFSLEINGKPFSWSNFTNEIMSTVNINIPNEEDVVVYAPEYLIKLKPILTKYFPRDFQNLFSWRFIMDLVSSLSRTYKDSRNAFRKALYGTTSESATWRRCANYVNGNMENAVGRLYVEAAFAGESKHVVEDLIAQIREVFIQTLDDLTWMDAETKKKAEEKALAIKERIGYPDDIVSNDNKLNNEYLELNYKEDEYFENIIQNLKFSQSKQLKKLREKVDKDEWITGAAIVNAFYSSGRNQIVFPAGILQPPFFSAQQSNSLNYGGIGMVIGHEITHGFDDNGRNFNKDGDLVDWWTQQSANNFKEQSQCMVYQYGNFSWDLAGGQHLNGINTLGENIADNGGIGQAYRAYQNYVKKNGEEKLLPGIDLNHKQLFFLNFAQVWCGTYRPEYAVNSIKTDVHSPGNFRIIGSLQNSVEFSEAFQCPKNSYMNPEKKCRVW
### Response 0.75 nM
